biological target: Organic cation transporter 1 (btOCT1) (Bos taurus, UniProt A7MBE0, N107Q/N71Q/N91Q); construct: gene SLC22A1; purified tag-free btOCT1 triple N-glycosylation mutant (NP_001094568.1), expressed in Pichia pastoris; test: SPR kinetics, purified btOCT1 over streptavidin-immobilised PGE2-PEG11-Biotin (PEG11-Biotin control); steady-state k […]; format: binding
Sequence (A7MBE0 whole entry N71Q/N91Q/N107Q): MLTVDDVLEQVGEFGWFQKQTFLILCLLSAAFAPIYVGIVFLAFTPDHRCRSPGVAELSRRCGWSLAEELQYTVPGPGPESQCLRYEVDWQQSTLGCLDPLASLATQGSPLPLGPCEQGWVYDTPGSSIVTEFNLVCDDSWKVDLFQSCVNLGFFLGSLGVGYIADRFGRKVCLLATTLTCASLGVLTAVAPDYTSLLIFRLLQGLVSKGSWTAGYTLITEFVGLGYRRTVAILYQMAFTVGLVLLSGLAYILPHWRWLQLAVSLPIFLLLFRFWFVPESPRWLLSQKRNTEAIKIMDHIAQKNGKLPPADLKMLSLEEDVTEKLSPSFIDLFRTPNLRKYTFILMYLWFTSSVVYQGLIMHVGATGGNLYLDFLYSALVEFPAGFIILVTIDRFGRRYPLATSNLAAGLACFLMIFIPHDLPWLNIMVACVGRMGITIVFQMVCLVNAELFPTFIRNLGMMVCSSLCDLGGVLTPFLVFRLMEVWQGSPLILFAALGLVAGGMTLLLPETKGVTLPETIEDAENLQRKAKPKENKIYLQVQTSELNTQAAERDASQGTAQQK
ASSAY ENDPOINT: Kd

Ask: Requested read-out: Kd. Entry: CCCCC[C@H](O)/C=C/[C@H]1[C@H](O)CC(=O)[C@@H]1C/C=C\CCCC(=O)O [Prostaglandin E2]
Reply: ~100 nM
